Data credit: patent US20220227873A1

Molecular target: human GAL9 of the human PBMC cultures (human)
Experiment: cell-based or functional assay
Measured TNF-α 72 hr, Fold change, as %, listed per entry.
Give the quantity in %, number only.

P9-37 (antibody, IgG1, V domains shown, Tested as bivalent monospecific native human full-length IgG1; also called ABS clone P9-37) VH: EVQLVESGGGLVQPGGSLRLSCAASGFTFWKYGIHWVRQAPGKGLEWVAYIYPAGGITSYADSVKGRFTISADTSKNTAYLQMNSLRAEDTAVYYCARSDYYSGMGMDYWGQGTLVTVSS VL: DIQMTQSPSSLSASVGDRVTITCRASQSVSSAVAWYQQKPGKAPKLLIYSASSLYSGVPSRFSGSRSGTDFTLTISSLQPEDFATYYCQQYYPSPSTFGQGTKVEIKR : 55.2

Request: Record request: TNF-α 72 hr, Fold change, as % value, item P9-11 (antibody, IgG1, V domains shown, Tested as bivalent monospecific native human full-length IgG1; also called ABS clone P9-11) VH: EVQLVESGGGLVQPGGSLRLSCAASGFTFSSYYIHWVRQAPGKGLEWVAYISPSGGYTYYADSVKGRFTISADTSKNTAYLQMNSLRAEDTAVYYCARGAVLYSSAMDYWGQGTLVTVSS VL: DIQMTQSPSSLSASVGDRVTITCRASQSVSSAVAWYQQKPGKAPKLLIYSASSLYSGVPSRFSGSRSGTDFTLTISSLQPEDFATYYCQQYYPSPSTFGQGTKVEIKR
Response: 64.7

Request: For P9-57 (antibody, IgG1, V domains shown, Tested as bivalent monospecific native human full-length IgG1; also called ABS clone P9-57) VH: EVQLVESGGGLVQPGGSLRLSCAASGFTFSSYYIHWVRQAPGKGLEWVATIYPSGGYTYYADSVKGRFTISADTSKNTAYLQMNSLRAEDTAVYYCARYSYPGVLDYWGQGTLVTVSS VL: DIQMTQSPSSLSASVGDRVTITCRASQSVSSAVAWYQQKPGKAPKLLIYSASSLYSGVPSRFSGSRSGTDFTLTISSLQPEDFATYYCQQSSSFLWTFGQGTKVEIKR , what is its reported TNF-α 72 hr, Fold change, as %?
Response: 53.7
